# SYSTEM: DNA topoisomerase 2-alpha (Homo sapiens, UniProt P11388)
# Sequence (P11388 whole entry): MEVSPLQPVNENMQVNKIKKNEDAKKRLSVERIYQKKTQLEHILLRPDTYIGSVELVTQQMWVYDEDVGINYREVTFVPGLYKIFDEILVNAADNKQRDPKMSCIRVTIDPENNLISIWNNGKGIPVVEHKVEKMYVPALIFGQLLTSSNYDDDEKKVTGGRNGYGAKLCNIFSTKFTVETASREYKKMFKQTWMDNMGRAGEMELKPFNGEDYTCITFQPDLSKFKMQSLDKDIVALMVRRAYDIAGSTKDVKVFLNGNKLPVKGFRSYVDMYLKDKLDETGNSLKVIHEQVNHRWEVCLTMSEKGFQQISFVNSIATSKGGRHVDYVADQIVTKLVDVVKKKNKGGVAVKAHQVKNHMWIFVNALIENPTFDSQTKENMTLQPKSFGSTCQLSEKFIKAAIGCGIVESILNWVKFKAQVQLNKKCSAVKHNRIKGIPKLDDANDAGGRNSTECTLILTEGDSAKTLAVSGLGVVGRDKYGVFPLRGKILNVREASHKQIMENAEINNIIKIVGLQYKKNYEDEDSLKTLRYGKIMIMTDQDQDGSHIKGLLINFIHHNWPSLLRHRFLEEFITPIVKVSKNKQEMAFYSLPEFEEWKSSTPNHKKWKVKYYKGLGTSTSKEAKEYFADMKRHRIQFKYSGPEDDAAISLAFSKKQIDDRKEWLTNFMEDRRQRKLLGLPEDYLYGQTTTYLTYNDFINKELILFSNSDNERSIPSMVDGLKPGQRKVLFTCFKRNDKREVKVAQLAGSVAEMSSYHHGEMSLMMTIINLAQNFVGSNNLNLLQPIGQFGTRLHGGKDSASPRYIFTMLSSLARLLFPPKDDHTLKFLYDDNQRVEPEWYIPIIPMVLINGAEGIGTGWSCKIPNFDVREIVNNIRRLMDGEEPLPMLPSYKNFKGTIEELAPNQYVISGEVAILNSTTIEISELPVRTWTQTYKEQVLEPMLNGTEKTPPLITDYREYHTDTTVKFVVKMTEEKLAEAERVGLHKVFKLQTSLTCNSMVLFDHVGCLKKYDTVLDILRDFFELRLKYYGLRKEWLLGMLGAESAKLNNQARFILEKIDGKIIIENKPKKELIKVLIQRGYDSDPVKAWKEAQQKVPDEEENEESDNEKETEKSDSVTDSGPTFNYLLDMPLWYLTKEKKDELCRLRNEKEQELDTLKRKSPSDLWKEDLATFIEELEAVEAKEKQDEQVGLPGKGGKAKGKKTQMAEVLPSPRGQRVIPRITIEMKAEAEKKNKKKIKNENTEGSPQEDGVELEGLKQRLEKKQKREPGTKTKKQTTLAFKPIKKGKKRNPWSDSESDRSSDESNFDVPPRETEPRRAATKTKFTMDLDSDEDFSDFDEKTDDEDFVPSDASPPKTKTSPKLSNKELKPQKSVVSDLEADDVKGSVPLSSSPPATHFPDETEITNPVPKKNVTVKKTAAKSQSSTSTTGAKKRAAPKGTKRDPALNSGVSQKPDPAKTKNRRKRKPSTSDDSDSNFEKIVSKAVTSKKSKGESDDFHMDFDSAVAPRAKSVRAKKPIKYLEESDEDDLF
pIC50: −log10 of the molar value.
So I've got a bunch of molecules here, and I need their pIC50 values.

// below: answered molecules
N#Cc1ccc(CSc2nc(SCc3ccccc3)nc(=O)[nH]2)c(F)c1    3.31
O=c1nc(SCc2ccccc2)nc(SCc2cccc(Cl)c2)[nH]1    4.26
O=C(O)CSC1N=C(SCc2ccccc2)NC(=O)N1 (stereo unspecified)    < 3.00
Cc1ccc(-c2nc(S)[nH]c(=O)n2)cc1    < 3.00

Please give pIC50, item by item, for the list that follows.
1. COc1ccc(CNc2nc(Cl)nc(Nc3ccccc3CCO)n2)cc1
2. O=c1nc(SCc2ccccc2)nc(S)[nH]1
3. Clc1nc(Cl)nc(Nc2ccccc2Br)n1
4. O=c1nc(SCc2ccccc2)nc(SCC2CCCCC2)[nH]1
5. COc1nc(Nc2ccccc2C(=O)O)nc(OC)n1
6. COC(=O)c1ccccc1Nc1nc(Cl)nc(Cl)n1

Result:
["< 3.00", "< 3.00", "< 3.00", "< 3.00", "< 3.00", "< 3.00"]

Would you mind listing pIC50 for each of the following molecules?
1. O=c1nc(-c2ccccc2)nc(S)[nH]1
2. COc1nc(Nc2ccccc2C(=O)N[C@@H](C)C(=O)OCc2ccccc2)nc(N[C@@H](C)C(=O)OCc2ccccc2)n1
3. COc1nc(OC)nc(Sc2ccccc2C(=O)O)n1
4. CCc1ccccc1Nc1nc(Cl)nc(Cl)n1
5. COc1nc(OC)nc(Sc2ccccc2C(=O)N[C@H](CCC(=O)OCc2ccccc2)C(=O)OCc2ccccc2)n1
6. Nc1ccc(-c2nc(=S)[nH]c(=O)[nH]2)cc1
7. O=c1nc(-c2cccc([N+](=O)[O-])c2)nc(S)[nH]1

Result:
< 3.00
< 3.00
< 3.00
< 3.00
< 3.00
< 3.00
< 3.00

For every item in the list below, what is its measured pIC50?
1. OCCc1ccccc1Nc1nc(Cl)nc(NCc2ccccc2)n1
2. CC(C)OC(=O)C(C)NC(=O)c1ccc(Nc2nc(Cl)nc(Cl)n2)cc1 (stereo unspecified)
3. O=C1NC(SCc2ccccc2)=NC(Sc2ccccc2)N1 (stereo unspecified)
4. O=c1nc(SCc2ccccc2)nc(SCc2ccccc2[N+](=O)[O-])[nH]1

Result:
["< 3.00", "< 3.00", "< 3.00", 3.42]
